Origin of measurements: patent US8318736B2

- Test system: HIV strain IIIB (wild type)
- assay: microbe, parasite or virus in culture
- assay setup: strain IIIB; CC50 in mock-infected MT4 CMV-EGFP cells
property label: pSI (IIIB) (-log SI; SI = ratio of CC50 to EC50)

{"columns": ["compound", "experimental target", "qualifier", "value measured"],
 "data": [
  ["COCc1nc(Nc2ccc(C#N)cc2)nc(Nc2c(C)cc(/C=C/C#N)cc2C)c1C(O)c1nccs1 (stereo not drawn)", "HIV strain IIIB (wild type)", "=", 3.81],
  ["COCc1nc(Nc2ccc(C#N)cc2)nc(Nc2c(C)cc(/C=C/C#N)cc2C)c1C(C)O (stereo not drawn)", "HIV strain IIIB (wild type)", "=", 3.95],
  ["COCc1nc(Nc2ccc(C#N)cc2)nc(Nc2c(C)cc(C=CC#N)cc2C)c1C(=O)NCCC#N (mixture of isomers)", "HIV strain IIIB (wild type)", "=", 4.22],
  ["COCc1nc(Nc2ccc(C#N)cc2)nc(Nc2c(C)cc(C=CC#N)cc2C)c1C(=O)N1CCCC(C(N)=O)C1 (mixture of isomers)", "HIV strain IIIB (wild type)", ">", 2.66],
  ["COCc1nc(Nc2ccc(C#N)cc2)nc(Nc2c(C)cc(C=CC#N)cc2C)c1C(=O)N(C)CCN(C)C (mixture of isomers)", "HIV strain IIIB (wild type)", "=", 2.53],
  ["COCc1nc(Nc2ccc(C#N)cc2)nc(Oc2c(C)cc(C=C(C)C#N)cc2C)c1C(=O)NCc1ccncc1 (mixture of isomers)", "HIV strain IIIB (wild type)", "=", 3.22]
]}
